test system: KM-20L2; assay: NCI tumour cell line growth inhibition, 48 h
The source made the active and inactive calls. Cut-off read from the data, not from the text of the source: active = GI50 up to about 1.1 µM and inactive = higher.
Hi there, use one of these labels in your reply, thanks! Y (active), N (inactive)

Query :: What did the test return for O=C1OC(Cc2ccccc2)(N2CCCC2=O)C1c1ccccc1 (stereo not given) ?
Result :: N

Query :: What did the test return for CC12CCC3C(CCC4(O)C=CCCC34C=O)C1(O)CC(O)C2c1ccc(=O)oc1 (stereo not given) ?
Result :: Y

Query :: What did the test return for COC(=O)Cc1cc(=O)n2c([nH]c3ccccc32)c1C#N ?
Result :: N

Query :: What did the test return for CC1COC(C)(C)P(=O)(c2ccccc2)C1 (stereo not given) ?
Result :: N

Query :: What did the test return for COC(=O)C1CC2(c3ccccc3)C(=O)c3ccccc3N2O1 (stereo not given) ?
Result :: N

Query :: What did the test return for COC(=O)C1=CC2C=CC(C1C(=O)OC)C1C(C(=O)OC)=C(C(=O)OC)C(C(=O)OC)=C(C(=O)OC)C21OC (stereo not given) ?
Result :: N

Query :: What did the test return for Cc1cccc2c1c1ccc3c(c1n2C)C(=O)C=CC3=O ?
Result :: N

Query :: What did the test return for C[C@]12CC[C@H](O)CC1=CC[C@@H]1C2CC[C@]2(C)C(=O)NC(=O)CC12 (stereo not given in full) ?
Result :: N

Query :: What did the test return for CC(=O)C(CN(C(C)C)C(C)C)C(c1ccccc1)c1c(O)c2ccccc2oc1=O (stereo not given) ?
Result :: N

Query :: What did the test return for COC1(OC)CCC2(C)OC(c3ccccc3)C1O2 (stereo not given) ?
Result :: N

----------
tested on: CCRF-CEM; assay: NCI tumour cell line growth inhibition, 48 h
Activity calls are given as the source filed them. No stated cut-off is given here; in the data, active = GI50 up to about 1.1 µM and inactive = higher.
Please go through the items and note down their GI50.

Query :: Give its GI50 value. Item: CCN(CC)CCn1ncc2c3c(=O)c4cccnc4n(CCN(CC)CC)c3ccc21
Result :: 4.98 µM (inactive)

Query :: Give its GI50 value. Item: O=C1c2cc3c(cc2CC12Cc1cc4c(cc1C2=O)CCC4)CCC3
Result :: > 100 µM (inactive)

Query :: Give its GI50 value. Item: O=c1c2c([nH]c3cc4c(cc13)OCO4)-c1ccccc1C2
Result :: 17.7 µM (inactive)

Query :: Give its GI50 value. Item: CC(CC[C@@H](C)C1CCC2[C@@H]3CC(O)C4CC(O)[C@@H](O)C[C@]4(C)C3CC[C@@]21C)C(C)(C)C (stereo not given in full)
Result :: > 100 µM (inactive)

Query :: Give its GI50 value. Item: CC(=O)OCc1c2ccccc2c(C)c2c1cc(F)c1ccccc12
Result :: 12.2 µM (inactive)

----------
system: MCF7; assay: NCI tumour cell line growth inhibition, 48 h
The source made the active and inactive calls. Cut-off read from the data, not from the text of the source: active = GI50 up to about 1.1 µM and inactive = higher.
outcomeMeasure: GI50

Query :: Which GI50 is reported with MCF7 for this entry: COc1cc(/C=C/c2ccccn2)cc(OC)c1OC ?
Result :: > 10 µM (inactive)

Query :: Which GI50 is reported with MCF7 for this entry: COC(=O)c1c(O)ccc2c1c1c(n2Cc2cc(OC)cc(OC)c2)C(=O)c2ccccc2C1=O ?
Result :: 4.63 µM (inactive)

Query :: Which GI50 is reported with MCF7 for this entry: COC(=O)C(C(=O)C(=O)NC1Nc2ccc(C)cc2S1)c1nc2ccc(Cl)cc2nc1O (stereo unspecified) ?
Result :: > 100 µM (inactive)

Query :: Which GI50 is reported with MCF7 for this entry: O=C(O)CCC1(c2ccccc2)NC(=O)NC1=O (stereo unspecified) ?
Result :: > 100 µM (inactive)

Query :: Which GI50 is reported with MCF7 for this entry: Oc1ccc(O)c(CNc2ccccc2)c1 ?
Result :: 15.1 µM (inactive)

Query :: Which GI50 is reported with MCF7 for this entry: COc1ccc(/C=N/Nc2nc3ccccc3c(=O)n2-c2ccccc2)cc1 ?
Result :: 3.61 µM (inactive)

Query :: Which GI50 is reported with MCF7 for this entry: O=C1C(Cl)=C(OCCCl)C(=O)c2c(O)ccc(O)c21 ?
Result :: 2.06 µM (inactive)

Query :: Which GI50 is reported with MCF7 for this entry: COc1ccc2c(c1)C(N)=C(c1ccccc1)C2=O ?
Result :: > 100 µM (inactive)

Query :: Which GI50 is reported with MCF7 for this entry: CC(C)c1ccc2c(c1)C=C1OC(=O)[C@]3(C)CCC[C@@]2(C)C13 (stereo partly specified) ?
Result :: > 100 µM (inactive)

Query :: Which GI50 is reported with MCF7 for this entry: O=C(Nn1c(-c2ccccc2)nc2ccccc2c1=O)c1ccc(O)cc1 ?
Result :: > 100 µM (inactive)

Query :: Which GI50 is reported with MCF7 for this entry: CCCCCCC(=O)OC[n+]1ccc(-c2c(COC(=O)NC(C)C)c(COC(=O)NC(C)C)c3n2CCC3)cc1 ?
Result :: 45.8 µM (inactive)

----------
test system: NCI-H522; experiment: NCI tumour cell line growth inhibition, 48 h
Activity calls are given as the source filed them. Rule as the data show it: active = GI50 up to about 1.1 µM and inactive = higher.
Hi there, use one of these labels in your reply, thanks! active, inactive

Query :: What did the test return for O=C1c2[nH]c3ccccc3c2CCN2CCCCC12 (stereo not given) ?
Result :: inactive

Query :: What did the test return for CNC(=O)OCc1nccc2c(C)c3[nH]c4ccc(OC)cc4c3cc12 ?
Result :: inactive

Query :: What did the test return for CSCCCCCCCCCCOc1ccc(C=C2C(=C(C#N)C#N)c3ccccc3C2=C(C#N)C#N)cc1 ?
Result :: inactive

Query :: What did the test return for CCOC(=O)/C(=C\c1ccc(OCc2ccccc2)c(OC)c1)C(=O)c1ccccc1 ?
Result :: inactive

Query :: What did the test return for CCN(CC)CCCNc1nccc2c(C)c3[nH]c4ccncc4c(=O)c3cc12 ?
Result :: active

----------
tested on: RPMI-8226; experiment: NCI tumour cell line growth inhibition, 48 h
Activity calls are given as the source filed them. No stated cut-off is given here; in the data, active = GI50 up to about 1.1 µM and inactive = higher.
Hi there, use one of these labels in your reply, thanks! true (active), false (inactive)

Query :: What did the test return for CCCC(=O)Nc1cc(C(=O)N2C[C@H]3C[C@@]34C2=CC(=O)c2[nH]cc(C)c24)n(COC)c1 ?
Result :: true

Query :: What did the test return for CCN(CC)c1ccc2cc(C(=O)Nc3ccccc3)c(=N)oc2c1 ?
Result :: false

Query :: What did the test return for C=CCNC(=O)C(C)C1CCC2(C)C=CC(=O)C(C)=C2C1O (stereo unspecified) ?
Result :: false

Query :: What did the test return for O=C1CC(c2ccccc2Cl)Oc2ccccc21 (stereo unspecified) ?
Result :: false

Query :: What did the test return for CO[C@H]1O[C@@H]2CO[C@@H](c3ccccc3)O[C@H]2[C@@H]2C/C=C\CCC[C@@]12O ?
Result :: false

Query :: What did the test return for COc1ccc(S(=O)(=O)c2ccccc2[N+](=O)[O-])cc1 ?
Result :: false

Query :: What did the test return for COc1cc(/C=C/c2ccccn2)cc(OC)c1OC ?
Result :: false

Query :: What did the test return for CCOC(=O)/C=C\C(C#N)(C#N)/N=C/c1ccsc1 ?
Result :: false

Query :: What did the test return for O=C(Oc1ccc(S(=O)(=O)F)cc1F)c1ccccc1Cl ?
Result :: false

Query :: What did the test return for CC(C)=CCc1c(O)ccc2c1OC1c3ccc(O)c(CC=C(C)C)c3OCC21 (stereo unspecified) ?
Result :: false

Query :: What did the test return for COC1=CC(=O)c2c(c(-c3nc(C)cs3)cn2C)C1=O ?
Result :: false

----------
system: T47D; assay: NCI tumour cell line growth inhibition, 48 h
Active and inactive are the calls of the source. Cut-off read from the data, not from the text of the source: active = GI50 up to about 1.1 µM and inactive = higher.
outcomeMeasure: GI50

Query :: Give its GI50 value. Item: c1ccc2c(CN3CCN(Cc4c[nH]c5ccccc45)CC3)c[nH]c2c1
Result :: 14.2 µM (inactive)

Query :: Give its GI50 value. Item: O=C1OC(c2ccccc2)=N/C1=C\c1ccc(F)cc1
Result :: > 100 µM (inactive)

Query :: Give its GI50 value. Item: CCCCCC(/C=N/Nc1ccccc1)C(O)(C(F)(F)F)C(F)(F)F (stereo not given)
Result :: > 100 µM (inactive)

Query :: Give its GI50 value. Item: CCN(CC)CCn1ncc2c3c(=O)c4cccnc4n(CCN(CC)CC)c3ccc21
Result :: > 10 µM (inactive)

Query :: Give its GI50 value. Item: O=C1CSC(c2c[nH]c3ccccc23)N1c1ccccc1[N+](=O)[O-] (stereo not given)
Result :: > 100 µM (inactive)

Query :: Give its GI50 value. Item: CSc1ccc2c(c1)c(CCN)c(C)n2Cc1ccccc1Cl
Result :: 1.57 µM (inactive)

Query :: Give its GI50 value. Item: O=C1c2cscc2C(=O)c2c(OCc3ccccc3)ccc(OCc3ccccc3)c21
Result :: > 100 µM (inactive)

Query :: Give its GI50 value. Item: CC1(Cc2cc3c(cc2C2(c4ccc([N+](=O)[O-])cc4)OCCO2)OCO3)OCCO1
Result :: > 100 µM (inactive)

Query :: Give its GI50 value. Item: NNC(=O)Cn1c2ccc(Br)cc2c2nc3ccccc3nc21
Result :: > 100 µM (inactive)

Query :: Give its GI50 value. Item: O[C@@H]1CCC[C@@H]2NC[C@@H](c3ccc4c(c3)OCO4)[C@H]12
Result :: > 100 µM (inactive)
